This listing pairs binders with measured EC50.
biological target: T1, Recombinant His-tagged FOLR1 (Example 5 ELISA) (UniProt P15328 25-233, limits assumed); test: ELISA on coated recombinant His-tagged FOLR1, OD450; unit from the axis 'ADC conc ng/ml'
T1 construct: also called FOLR1-his; recombinant protein FOLR-1; not shown: His tag
T1 sequence (P15328 25-233 limits assumed): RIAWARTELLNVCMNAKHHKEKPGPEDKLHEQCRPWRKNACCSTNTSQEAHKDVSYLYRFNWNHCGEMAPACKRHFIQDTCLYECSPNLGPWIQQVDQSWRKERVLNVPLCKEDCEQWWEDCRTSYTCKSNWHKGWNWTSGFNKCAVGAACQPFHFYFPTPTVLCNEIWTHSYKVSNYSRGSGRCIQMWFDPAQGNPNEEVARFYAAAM

binder	EC50, ng/mL
F8-ADC (antibody F8 conjugated to mc-VC-PAB-MMAE) (antibody, V domains shown, mc-VC-PAB-MMAE on cysteine thiols after TCEP reduction (positions not stated; DAR within 3~4), Antibody-drug conjugate; also called F8 immunoconjugate) VH: EVQLLESGGGVVQHGRSLRLSCAASGFTFSSYGMHWVRQAPGKGLEWVAVISYDGSNKYYADSVKGRFTISRDNSKNTLYLQMNSLRAEDTAVYYCARPRAYYGAYGSSFDYWGQGTQVTVSS VL: EIVMTQSPSSVSASVGDRVAITCRASQGISSWLAWYQQKPGKAPKLLIYAASSLQSGVPSRFSGSGSGTDFTLTISSLQPEDFATYYCQQSYSTPLTFGGGTKVDIK	6.53
F131-ADC (antibody F131 conjugated to mc-VC-PAB-MMAE) (antibody, V domains shown, mc-VC-PAB-MMAE on cysteine thiols after TCEP reduction (positions not stated; DAR within 3~4), Antibody-drug conjugate; also called F131 immunoconjugate) VH: EVQLLESGGGVVQPGRSLRLSCAASGFTFSSYGMHWVRQAPGKGLEWVAVISYDGSNKYYADSVKGRFTISRANSKNTLYLQMNSLRAEDTAVYYCARPRAYYGAYGSSFDYWGQGTQVTVSS VL: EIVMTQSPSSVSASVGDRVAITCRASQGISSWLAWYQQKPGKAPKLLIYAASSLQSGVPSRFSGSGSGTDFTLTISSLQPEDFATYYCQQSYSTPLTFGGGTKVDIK	6.64
F26-ADC (antibody F26 conjugated to mc-VC-PAB-MMAE) (antibody, V domains shown, mc-VC-PAB-MMAE on cysteine thiols after TCEP reduction (positions not stated; DAR within 3~4), Antibody-drug conjugate; also called F26 immunoconjugate) VH: EVQLLESGGGVVQRGRSLRLSCAASGFTFSSYGMHWVRQAPGKGLEWVAVISYDGSNKYYADSVKGRFTISRDNSKNTLYLPMNSLRAEDTAVYYCARPRAYYGAYGSSFDYWGQGTQVTVSS VL: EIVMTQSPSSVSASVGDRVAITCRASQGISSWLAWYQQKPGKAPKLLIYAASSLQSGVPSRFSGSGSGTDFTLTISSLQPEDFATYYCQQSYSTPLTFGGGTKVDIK	8.04
FR107-ADC (reference antibody mirvetuximab huFR107 conjugated to mc-VC-PAB-MMAE) (antibody, V domains shown, mc-VC-PAB-MMAE on cysteine thiols after TCEP reduction (positions not stated; DAR within 3~4), Control conjugate) VH: QVQLVQSGAEVVKPGASVKISCKASGYTFTGYFMNWVKQSPGQSLEWIGRIHPYDGDTFYNQKFQGKATLTVDKSSNTAHMELLSLTSEDFAVYYCTRYDGSRAMDYWGQGTTVTVSS VL: DIVLTQSPLSLAVSLGQPAIISCKASQSVSFAGTSLMHWYHQKPGQQPRLLIYRASNLEAGVPDRFSGSGSKTDFTLTISPVEAEDAATYYCQQSREYPYTFGGGTKLEIK	3.39
